Target: T1, EsCas13d, nuclease-dead (Eubacterium siraeum, UniProt B0MS50, R295A;H300A;R849A;H854A)
T1 sequence: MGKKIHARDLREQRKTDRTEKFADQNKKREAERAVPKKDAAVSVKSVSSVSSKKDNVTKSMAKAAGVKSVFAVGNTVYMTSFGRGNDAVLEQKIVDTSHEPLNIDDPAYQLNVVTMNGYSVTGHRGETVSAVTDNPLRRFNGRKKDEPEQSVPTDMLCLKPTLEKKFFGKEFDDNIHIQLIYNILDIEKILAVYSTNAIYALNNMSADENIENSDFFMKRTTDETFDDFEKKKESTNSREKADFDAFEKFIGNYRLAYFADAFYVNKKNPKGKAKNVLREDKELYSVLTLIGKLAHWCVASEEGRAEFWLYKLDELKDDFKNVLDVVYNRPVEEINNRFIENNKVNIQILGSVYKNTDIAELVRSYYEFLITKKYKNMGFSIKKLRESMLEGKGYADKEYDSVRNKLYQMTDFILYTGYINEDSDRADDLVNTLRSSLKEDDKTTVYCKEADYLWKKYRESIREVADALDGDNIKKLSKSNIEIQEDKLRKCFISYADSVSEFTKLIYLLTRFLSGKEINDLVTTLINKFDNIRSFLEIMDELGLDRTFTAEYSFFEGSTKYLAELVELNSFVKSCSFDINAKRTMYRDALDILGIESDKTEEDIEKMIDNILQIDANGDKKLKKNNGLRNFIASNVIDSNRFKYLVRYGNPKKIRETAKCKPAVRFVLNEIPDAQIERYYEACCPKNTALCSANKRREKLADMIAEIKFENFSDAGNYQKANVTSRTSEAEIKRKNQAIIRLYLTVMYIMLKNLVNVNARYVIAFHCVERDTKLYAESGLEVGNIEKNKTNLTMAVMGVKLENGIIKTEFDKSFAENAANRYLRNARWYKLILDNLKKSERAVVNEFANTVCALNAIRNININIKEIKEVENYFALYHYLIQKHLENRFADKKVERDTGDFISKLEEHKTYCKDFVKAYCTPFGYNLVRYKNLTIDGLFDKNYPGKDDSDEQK
Test: crRNA (strand 1, pre-loaded); Mg2+; 40 mM Tris-HCl pH 7.5, 150 mM NaCl, 6 mM MgCl2, 1 mM DTT, 0.1% Tween-20, 0.2 mg/ml BSA; 25 C; 10 min per concentration, then washed
Conditions: tags: His6-TwinStrep-SUMO cleaved; N-terminal SNAP kept (SNAP-Surface 488); label: 3' end held by stalled T7 RNA polymerase
binders and their reported pKd
Please express pKd as -log10 of the molar concentration.

Some binders with known pKd results, for comparison:
target 1 MT 5'PFS UUA 3'PFS UUG (mixed) RNA 1: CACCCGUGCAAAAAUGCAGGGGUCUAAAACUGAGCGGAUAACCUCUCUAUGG RNA 2: GGGAAUGGAUCCACAUCUACGAAUUCUUACCAUAGAGAGGUUAUCCGCUCAUUGAGAUCGGAAGAGCACACGU : 7.93
target 2 MT 5'PFS AAG 3'PFS ACA (mixed) RNA 1: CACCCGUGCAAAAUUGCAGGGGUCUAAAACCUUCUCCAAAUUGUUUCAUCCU RNA 2: GGGAAUGGAUCCACAUCUACGAAUUCAAGAGGAUGAAACAAUUUGGAGAAGACAAGAUCGGAAGAGCACACGU : 8.30
target 1 C7A,U8A (mixed) RNA 1: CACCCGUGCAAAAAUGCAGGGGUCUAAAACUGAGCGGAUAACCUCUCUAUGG RNA 2: GGGAAUGGAUCCACAUCUACGAAUUCGUACCAUAGAGAGGUUAAACGCUCACCGAGAUCGGAAGAGCACACGU : 8.13

Attention now shifts to the item below.
Req: # query: pKd of entry target 1 insC 3' of 11,insC 3' of 9 (mixed) RNA 1: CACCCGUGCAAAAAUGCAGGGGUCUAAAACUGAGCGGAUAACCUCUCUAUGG RNA 2: GGGAAUGGAUCCACAUCUACGAAUUCGUACCAUAGAGAGGUCUACUCCGCUCACCGAGAUCGGAAGAGCACACGU
Resp: 7.53
